Tested on: SF-295
Test Name: NCI tumour cell line growth inhibition, 48 h
Activity calls are given as the source filed them. Cut-off read from the data, not from the text of the source: active = GI50 up to about 1.1 µM and inactive = higher.
// allowed return values: active, inactive

Check out these entries, answers already filled in.
COc1c(C)c2c(c3c1c(=O)c1ccccc1n3C)C=CC(C)(C)O2; inactive
O=C(O)CCC(=O)OCN1C(=O)C2C3C=CC(C2C1=O)C1C2C(=O)N(COC(=O)CCC(=O)O)C(=O)C2C31 (stereo not drawn); inactive
N#CCCN(CCC#N)c1ccc(C(Sc2ccccc2)C(NC(=O)c2cc([N+](=O)[O-])ccc2Cl)C(=O)Sc2ccccc2)cc1 (stereo not drawn); inactive
CC(=O)/C=C/CCC(=O)/C=C/C(=O)OC(CCC(=O)/C=C/C(=O)O)CC(C)=O (stereo not drawn); inactive
CC(=O)O[C@H]1C(=O)[C@@]2(C)[C@H]([C@H](OC(=O)C3CCCCC3)[C@]3(O)C[C@H](OC(=O)[C@H](O)[C@@H](NC(=O)C4CCCCC4)C4CCCCC4)C(C)=C1C3(C)C)[C@]1(OC(C)=O)CO[C@@H]1C[C@@H]2O; active
Clc1ccccc1NN(Cc1ccccn1)c1ccccc1Cl; inactive

q: Called result for COC(=O)[C@]1(C)CCC[C@@]2(C)C1CC[C@@]13C=C(C(C)C)[C@@H](CC1=O)CC23 (stereo partly drawn)
a: inactive

q: Called result for "O=[N+]([O-])c1ccc(Cc2nc3cc4ccccc4cc3[nH]2)cc1C(F)(F)F"
a: inactive
